The measurements presented in this section are drawn from paper PMC10578308.

target: GLuc secretion (model Sec61 substrate) from U87-MG-GLuc cells (Homo sapiens, UniProt P61619); experiment: Gaussia luciferase (GLuc) secretory assay; details: 18-h incubation, n = 3, read-out: IC50 (50% inhibition of GLuc expression)
Sequence (P61619 whole entry): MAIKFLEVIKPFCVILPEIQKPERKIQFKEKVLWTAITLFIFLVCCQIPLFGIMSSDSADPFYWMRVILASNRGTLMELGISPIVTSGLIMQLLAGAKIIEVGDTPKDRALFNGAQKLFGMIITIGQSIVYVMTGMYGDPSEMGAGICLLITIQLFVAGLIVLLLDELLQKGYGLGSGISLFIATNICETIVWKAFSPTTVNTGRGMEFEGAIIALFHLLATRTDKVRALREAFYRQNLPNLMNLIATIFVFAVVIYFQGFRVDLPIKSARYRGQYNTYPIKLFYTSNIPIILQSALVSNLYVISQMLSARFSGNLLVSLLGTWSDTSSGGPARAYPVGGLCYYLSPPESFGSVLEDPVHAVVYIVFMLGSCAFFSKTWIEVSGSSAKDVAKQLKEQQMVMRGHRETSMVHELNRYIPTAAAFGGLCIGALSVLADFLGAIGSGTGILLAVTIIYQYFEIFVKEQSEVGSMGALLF
Positions of bridges follow the written chain, without caps; N, C: chain ends. Non-standard residues stand in square brackets, D forms with d. Residues, ends and D or L forms follow the SMILES beside them. *: point of attachment. NMe2Val = CC(C)[C@@H](C(=O)*)N(C)C; NMeI = CC[C@H](C)[C@H](NC)C(=O)O; NMeT = CN[C@H](C(=O)O)[C@@H](C)O; NMeL = CN[C@@H](CC(C)C)C(=O)O; dHiv = CC(C)[C@@H](O)C(=O)O; NMeS = CN[C@@H](CO)C(=O)O; NMeA = CN[C@@H](C)C(=O)O; dNMeA = CN[C@H](C)C(=O)O
# IC50 annotations

[
  {
    "compound": "CC[C@H](C)[C@H]1C(=O)N[C@@H](C)C(=O)N(C)[C@@H](CC(C)C)C(=O)N[C@@H](Cc2ccc(OC)cc2)C(=O)N(C)[C@H](C)C(=O)O[C@H](C)[C@H](N(C)C(=O)[C@H](CC(C)C)N(C)C(=O)[C@H](C)N(C)C(=O)[C@H](OC(=O)[C@H](C(C)C)N(C)C)C(C)C)C(=O)N(C)[C@@H](C)C(=O)N1C [Peptide 1b, reference compound] (NMe2Val-[dHiv][NMeA][NMeL][NMeT][NMeA][NMeI]A[NMeL]Y(Me)[dNMeA]; ester 4-C)",
    "IC50 / nM": 2
  },
  {
    "compound": "CC[C@H](C)[C@H]1C(=O)N[C@@H](C)C(=O)N(C)[C@@H](CC(C)C)C(=O)N[C@@H](Cc2ccc(OC)cc2)C(=O)N(C)[C@H](C)C(=O)O[C@H](C)[C@H](N(C)C(=O)[C@H](CC(C)C)N(C)C(=O)[C@H](COC)N(C)C(=O)[C@H](OC(=O)[C@H](C(C)C)N(C)C)C(C)C)C(=O)N(C)[C@@H](COC)C(=O)N1C [Coibamide A (1a), coibamide A] (NMe2Val-[dHiv][NMeS](Me)[NMeL][NMeT][NMeS](Me)[NMeI]A[NMeL]Y(Me)[dNMeA]; ester 4-C)",
    "IC50 / nM": 1.1
  }
]
